All figures here come from patent US8822446B2.

target: Cdc7 (BEV coexpressed huCDC7/DBF4) (Homo sapiens); test: Cdc7 enzyme inhibition assay ([33P]-ATP, biotinylated peptide substrate, FlashPlate); conditions: Ki generated from IC50 assuming ATP-competitive inhibition; 1 μM ATP, apparent ATP Km 0.7 μM; 1 hr reaction
Sequence (O00311 whole entry): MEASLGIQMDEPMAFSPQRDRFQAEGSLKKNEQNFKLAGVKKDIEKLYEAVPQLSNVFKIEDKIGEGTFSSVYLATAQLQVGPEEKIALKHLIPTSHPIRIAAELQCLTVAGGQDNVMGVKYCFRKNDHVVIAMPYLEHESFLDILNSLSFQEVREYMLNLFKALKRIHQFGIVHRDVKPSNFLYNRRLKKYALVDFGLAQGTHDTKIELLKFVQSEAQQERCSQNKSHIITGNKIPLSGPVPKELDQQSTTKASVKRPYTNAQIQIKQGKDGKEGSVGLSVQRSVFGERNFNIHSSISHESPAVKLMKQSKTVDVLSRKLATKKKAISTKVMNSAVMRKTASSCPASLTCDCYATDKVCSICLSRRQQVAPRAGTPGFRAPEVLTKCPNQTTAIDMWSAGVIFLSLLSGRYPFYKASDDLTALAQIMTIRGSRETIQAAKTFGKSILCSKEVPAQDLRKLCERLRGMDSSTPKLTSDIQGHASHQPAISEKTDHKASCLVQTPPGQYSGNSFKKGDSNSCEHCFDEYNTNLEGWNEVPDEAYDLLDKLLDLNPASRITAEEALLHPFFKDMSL
Sequence (Q9UBU7 whole entry partner): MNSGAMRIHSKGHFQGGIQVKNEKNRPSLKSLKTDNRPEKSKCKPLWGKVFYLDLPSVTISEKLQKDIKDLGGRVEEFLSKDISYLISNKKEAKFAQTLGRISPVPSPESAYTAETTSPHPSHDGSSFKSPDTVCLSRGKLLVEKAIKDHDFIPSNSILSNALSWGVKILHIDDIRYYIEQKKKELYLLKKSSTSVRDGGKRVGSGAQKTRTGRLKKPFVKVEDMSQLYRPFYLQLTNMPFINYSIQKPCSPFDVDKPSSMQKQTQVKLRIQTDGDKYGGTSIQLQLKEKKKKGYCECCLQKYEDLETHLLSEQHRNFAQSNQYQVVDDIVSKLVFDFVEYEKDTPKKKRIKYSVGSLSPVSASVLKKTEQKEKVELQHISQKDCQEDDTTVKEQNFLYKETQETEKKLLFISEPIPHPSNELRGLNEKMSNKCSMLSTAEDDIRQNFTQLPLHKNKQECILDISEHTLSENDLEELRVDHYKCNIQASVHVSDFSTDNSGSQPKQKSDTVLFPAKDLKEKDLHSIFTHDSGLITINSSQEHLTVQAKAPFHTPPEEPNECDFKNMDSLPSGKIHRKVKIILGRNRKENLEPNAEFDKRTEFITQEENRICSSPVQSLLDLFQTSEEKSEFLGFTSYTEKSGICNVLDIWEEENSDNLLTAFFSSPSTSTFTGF
pKi: −log10 of the molar value.
metric: pKi

- O=c1cc(-c2c[nH]c3ncccc23)nc(NCc2cc(F)cc(F)c2)[nH]1: > 8.00
- O=c1cc(-c2c[nH]c3ncccc23)nc(NC2CCNCC2)[nH]1: > 8.00
- N[C@H]1CC[C@H](Nc2cc(-c3c[nH]c4ncccc34)cc(=O)[nH]2)CC1: > 8.00
- O=c1cc(-c2c[nH]c3ncccc23)cc(-c2ccccc2)[nH]1: > 8.00
- O=c1cc(-c2c[nH]c3ncccc23)nc(N2CCC(O)CC2)[nH]1: > 8.00
- COc1cccc(-c2cc(-c3c[nH]c4ncccc34)cc(=O)[nH]2)c1OC: > 8.00
- O=c1cc(-c2c[nH]c3ncccc23)nc(NCC2CCCO2)[nH]1 (stereo not drawn): > 8.00
- O=c1cc(-c2c[nH]c3ncccc23)cc(N[C@H]2CC[C@H](NS(=O)(=O)C3CC3)CC2)[nH]1: > 8.00
- COc1nccc(-c2cc(-c3c[nH]c4ncccc34)cc(=O)[nH]2)c1Cl: > 8.00

---

Listing: pKi of selected molecules
Biological target: Cdc7 (BEV coexpressed huCDC7/DBF4) (Homo sapiens)
Construct: made in house; host or cells: baculovirus expression vector (BEV) co-expression
Experiment: Cdc7 enzyme inhibition assay ([33P]-ATP, biotinylated peptide substrate, FlashPlate)
Type: biochemical
Settings: Ki generated from IC50 assuming ATP-competitive inhibition; 1 μM ATP, apparent ATP Km 0.7 μM; 1 hr reaction
Procedure: This example describes the assays that may be used to identify compounds having kinase activity. Cdc7 (BEV coexpressed huCDC7/DBF4) is prepared internally. Cdc7 assays are conducted as follows with final concentrations as listed. […]
pKi: −log10 of the molar value.
metric: pKi

• O=c1cc(-c2c[nH]c3ncccc23)nc(NCCO)[nH]1 = > 8.00
• O=c1cc(-c2c[nH]c3ncccc23)cc(-c2ccc3c(c2)OCO3)[nH]1 = > 8.00
• O=c1cc(-c2c[nH]c3ncccc23)nc(Nc2ccccc2)[nH]1 = > 8.00
• O=c1cc(-c2c[nH]c3ncccc23)nc(NCc2ccccc2)[nH]1 = > 8.00
• O=c1cc(-c2c[nH]c3ncccc23)nc(NC2CCCCC2O)[nH]1 (stereo not drawn) = > 8.00
• CN1CCC(Nc2nc(-c3c[nH]c4ncccc34)cc(=O)[nH]2)CC1 = > 8.00
• COc1ncccc1-c1cc(-c2c[nH]c3ncccc23)cc(=O)[nH]1 = > 8.00
• COc1ccc(C(F)(F)F)cc1-c1cc(-c2c[nH]c3ncccc23)cc(=O)[nH]1 = > 8.00
• O=c1cc(-c2c[nH]c3ncccc23)cc(-c2ccc3ccccc3c2)[nH]1 = > 8.00
